assay: Compound was evaluated for its inhibitory activity against multidrug resistance associated protein type 1 (MRP) using potentiation assay; type: functional, Homo sapiens
PROPERTY NAME: pEC50
Give bare numbers, as −log10 of the molar value.

Incoming: # lookup: pEC50 of COc1cc2c(cc1OC)CN(CCn1c(-c3ccc(N(C)C)cc3)nc3ccccc3c1=O)CC2
Outgoing: 5.52
